# Measurement Notes: physchem
# Measurement Setup: 40 °C, oil or lipid, thermodynamic from solid, Approximate Solubility (mg/mL) in Excipient: Sesame oil, Sesame oil; heating temp. 60 °C, obs. temp. 40 °C
Value Type: solubility

                           structure_smiles  value_type        result
0  C=C1CC[C@@]2(O)[C@H]3Cc4ccc(O)c5c4[C@@]2(CCN3CC2CC2)[C@H]1O5  solubility  < 25.5 mg/mL

====

# Measurement Setup: Sesame oil; heating temp. 40 °C, obs. temp. 40 °C
Value Type: Approximate Solubility (mg/mL) in Excipient: Sesame oil

                           structure_smiles            result
0  C=C1CC[C@@]2(O)C3Cc4ccc(OC(=O)OCCCCCCCCCCCCCCCC)c5c4[C@@]2(CCN3CC2CC2)[C@H]1O5  103 to 137 mg/mL
1  C=C1CC[C@@]2(O)C3Cc4ccc(OC(=O)CCCCCCC/C=C\C/C=C\CCCCC)c5c4[C@@]2(CCN3CC2CC2)[C@H]1O5      >408.4 mg/mL
2  C=C1CC[C@@]2(O)C3Cc4ccc(OC(=O)CCCCCCCCCCC/C=C\CCCCCCCC)c5c4[C@@]2(CCN3CC2CC2)[C@H]1O5        >406 mg/mL
3  C=C1CC[C@@]2(O)C3Cc4ccc(OC(=O)CCCCCCCCCCCCCCCCC)c5c4[C@@]2(CCN3CC2CC2)[C@H]1O5    70 to 95 mg/mL
4  C=C1CC[C@@]2(O)C3Cc4ccc(OC(=O)CCCCCCCCCCCCCCCCCCCCC)c5c4[C@@]2(CCN3CC2CC2)[C@H]1O5         <51 mg/mL
5  C=C1CC[C@@]2(O)C3Cc4ccc(OC(=O)CCCCCCCCCCCCCCCCCCC)c5c4[C@@]2(CCN3CC2CC2)[C@H]1O5    68 to 81 mg/mL

====

# Measurement Notes: Plasma stability assay, rat plasma
# Type: in vitro ADME
# Measurement Setup: 10 μM, 37° C., 1440 min
Value Type: % remaining at time point (%)

In [3]: df
Out[3]:
                                    compound                 value_type  unit_descriptor  result
 0  CCCCCCCCCCCC(=O)OCN1C(=O)CCc2ccc(OCCCCN3CCN(c4cccc(Cl)c4Cl)CC3)cc21 [Aripiprazole Lauroxil, reference compound]  % remaining at time point                %      46
 1  C=C1CC[C@@]2(O)C3Cc4ccc(OC(=O)CCCCCCCCCCCCCCC)c5c4[C@@]2(CCN3CC2CC2)[C@H]1O5  % remaining at time point                %    16.8
 2  C=C1CC[C@@]2(O)C3Cc4ccc(OC(=O)OCCCCCCCCCCCCC)c5c4[C@@]2(CCN3CC2CC2)[C@H]1O5  % remaining at time point                %    22.2
 3  CCCCCCCCCCCCCCCCCCCC(=O)Oc1ccc2c3c1O[C@H]1C(=O)CC[C@@]4(O)C(C2)N(CC2CC2)CC[C@]314  % remaining at time point                %    73.9
 4  C=C1CC[C@@]2(O)C3Cc4ccc(OCOC(=O)OCCCCCCCCCCCC)c5c4[C@@]2(CCN3CC2CC2)[C@H]1O5  % remaining at time point                %       3
 5  C=C1CC[C@@]2(O)C3Cc4ccc(OC(=O)OCCCCCCCCCC)c5c4[C@@]2(CCN3CC2CC2)[C@H]1O5  % remaining at time point                %       0
 6  C=C1CC[C@@]2(O)C3Cc4ccc(OCOC(=O)OCCCCCCCCCCCCCC)c5c4[C@@]2(CCN3CC2CC2)[C@H]1O5  % remaining at time point                %    51.7
 7  C=C1CC[C@@]2(O)C3Cc4ccc(OC(=O)CCCCCCCCCCC)c5c4[C@@]2(CCN3CC2CC2)[C@H]1O5 [Compound 59, reference compound]  % remaining at time point                %       0
 8  CCCCCCCCCCCCCCCCCC(=O)Oc1ccc2c3c1O[C@H]1C(=O)CC[C@@]4(O)C(C2)N(CC2CC2)CC[C@]314  % remaining at time point                %    19.4
 9  CCCCC/C=C\C/C=C\CCCCCCCC(=O)Oc1ccc2c3c1O[C@H]1C(=O)CC[C@@]4(O)C(C2)N(CC2CC2)CC[C@]314  % remaining at time point                %     1.9
10  C=C1CC[C@@]2(O)C3Cc4ccc(OC(=O)CCCCCCC/C=C\CCCCCCCC)c5c4[C@@]2(CCN3CC2CC2)[C@H]1O5  % remaining at time point                %    19.1
11  CCCCCCCCCCCCCCCC(=O)Oc1ccc2c3c1O[C@H]1C(=O)CC[C@@]4(O)C(C2)N(CC2CC2)CC[C@]314  % remaining at time point                %    15.6
12  CCCCCCCCCCCCOC(=O)Oc1ccc2c3c1O[C@H]1C(=O)CC[C@@]4(O)C(C2)N(CC2CC2)CC[C@]314  % remaining at time point                %       0
